The reported numbers originate from patent US6531464B1.

tested on: nitric oxide (nitrite); assay: LPS-stimulated J774 macrophages: nitric oxide production measured as nitrite; type: cell-based; settings: Mus musculus, J774; LPS 10 μg/ml; 30 min pretreatment 0.1 to 30 μM; measured at 24 h; mean±SEM n=3-6; read-out: Inhibition of Nitrite (J774)
pEC50: −log10 of the molar value.
Reported Endpoint: pEC50

| Molecule Smiles | Observed |
| --- | --- |
| O=C(CN1CCOCC1)Nc1ccc2[nH]c(=O)c3ccccc3c2c1 | 4.69 |
| O=C(CN1CCCCC1)Nc1ccc2[nH]c(=O)c3ccccc3c2c1 | 4.60 |
| CN(C)CC(=O)Nc1ccc2[nH]c(=O)c3ccccc3c2c1 | 4.82 |
